tested on: Saccharomyces cerevisiae; experiment: Fermentation test of treated sugar liquor with yeast; assay type: cell-based; conditions: 72 hr
observedProperty: Ethanol (g/L)

substancesmiles=NCCO measuredon="Saccharomyces cerevisiae" recordedresult=2.92
substancesmiles=Cc1ccc(N)cc1N measuredon="Saccharomyces cerevisiae" recordedresult=86.38
substancesmiles=NC(N)=O measuredon="Saccharomyces cerevisiae" recordedresult=2.39
substancesmiles=Nc1ccc(N)cc1 measuredon="Saccharomyces cerevisiae" recordedresult=84.79
substancesmiles=Nc1nc(N)nc(N)n1 measuredon="Saccharomyces cerevisiae" recordedresult=2.1
substancesmiles=Nc1ccccc1N measuredon="Saccharomyces cerevisiae" recordedresult=90.28

---

tested on: Saccharomyces cerevisiae; assay: Fermentation test of treated sugar liquor with yeast; assay type: cell-based; details: 72 hr
Please use label 1 whenever % Glucose Consumed is not below 7%, and label 0 whenever it is.

substancesmiles=NC(N)=O labelvalue="label 0"
substancesmiles=Nc1ccccc1N labelvalue="label 1"
substancesmiles=NCCO labelvalue="label 1"
substancesmiles=Nc1ccc(N)cc1 labelvalue="label 1"
substancesmiles=Cc1ccc(N)cc1N labelvalue="label 1"
substancesmiles=Nc1nc(N)nc(N)n1 labelvalue="label 0"

---

test system: Saccharomyces cerevisiae; experiment: Fermentation test of treated sugar liquor with yeast; assay type: cell-based; details: 24 hr
Checkbox rule: % Glucose Consumed lower than 8% = t; % Glucose Consumed not lower than 8% = f.

substancesmiles=Nc1nc(N)nc(N)n1 labelvalue=t
substancesmiles=Nc1ccc(N)cc1 labelvalue=f
substancesmiles=Nc1ccccc1N labelvalue=f
substancesmiles=Nc1cccc(N)c1 labelvalue=f
substancesmiles=NC(N)=O labelvalue=t
substancesmiles=Cc1ccc(N)cc1N labelvalue=f
substancesmiles=Nc1ccccc1 labelvalue=t
